Test system: head twitch response in mice
protocol-details: Head twitch response (HTR)
Format: in vivo
measurement-setup: mice, i.p., 10-min period
metric: HTR Emax (95% CI)

Sample records with HTR Emax (95% CI):
COc1ccc2[nH]cc(CCN(C)C)c2c1 [5-MeO-DMT, 5-methoxy-N,N-dimethyltryptamine] : 38.1 (31.7–44.5) HTR events
COc1ccc2[nH]cc(CCNC(C)C)c2c1 [5-MeO-NIPT] : 7.58 (5.46–9.71) HTR events
CCN(C)CCc1c[nH]c2ccc(OC)cc12 [5-MeO-MET] : 28.4 (23.5–33.2) HTR events
COc1ccc2[nH]cc(CCN(C(C)C)C(C)C)c2c1 [5-MeO-DIPT, 5-methoxy-N,N-diisopropyltryptamine] : 10.5 (8.5–12.5) HTR events
CCN(CCc1c[nH]c2ccc(OC)cc12)C(C)C [5-MeO-EIPT] : 9.27 (7.10–11.44) HTR events
COc1ccc2[nH]cc(CCN3CCCC3)c2c1 [5-MeO-pyr-T] : 10.0 (6.9–13.1) HTR events
COc1ccc2[nH]cc(CCN(C)C(C)C)c2c1 [5-MeO-MIPT] : 14.19 (11.7–16.68) HTR events
CCN(CC)CCc1c[nH]c2ccc(OC)cc12 [5-MeO-DET] : 9.73 (7.61–11.85) HTR events

// lookup HTR Emax (95% CI) | system=head twitch response in mice | key= C=CCN(CC=C)CCc1c[nH]c2ccc(OC)cc12 [5-MeO-DALT]
10.4 (8.5–12.4) HTR events

// lookup HTR Emax (95% CI) | system=head twitch response in mice | key= C=CCN(C)CCc1c[nH]c2ccc(OC)cc12 [5-MeO-MALT]
27.6 (23.2–32.0) HTR events

----------
tgt: SERT (Homo sapiens, UniProt P31645)
Construct: YFP (yellow-fluorescent protein); expressed in transfected cells
Sequence (P31645 whole entry): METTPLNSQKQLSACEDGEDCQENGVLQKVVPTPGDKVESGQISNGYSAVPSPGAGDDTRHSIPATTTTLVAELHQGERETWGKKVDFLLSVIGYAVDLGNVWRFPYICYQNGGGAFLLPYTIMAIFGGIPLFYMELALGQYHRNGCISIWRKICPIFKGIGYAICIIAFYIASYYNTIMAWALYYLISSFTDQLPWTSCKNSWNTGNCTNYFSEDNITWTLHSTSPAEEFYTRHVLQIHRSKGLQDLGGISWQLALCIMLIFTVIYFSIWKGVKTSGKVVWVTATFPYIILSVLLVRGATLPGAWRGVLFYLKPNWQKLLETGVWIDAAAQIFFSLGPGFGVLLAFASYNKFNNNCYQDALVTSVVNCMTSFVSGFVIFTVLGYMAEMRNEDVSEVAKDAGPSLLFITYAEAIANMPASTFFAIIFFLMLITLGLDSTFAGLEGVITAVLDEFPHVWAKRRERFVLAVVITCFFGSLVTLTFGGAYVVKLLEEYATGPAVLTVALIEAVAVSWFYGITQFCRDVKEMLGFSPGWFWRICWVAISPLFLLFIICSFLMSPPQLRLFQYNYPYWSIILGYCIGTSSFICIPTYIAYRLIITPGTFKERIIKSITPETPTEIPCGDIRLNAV
protocol-details: Whole-cell patch clamp, transporter-mediated currents in HEK293 cells
Type: cell-based
metric: EC50 (nM)
// return numeric value only (unit: nM, not printed)

What value of EC50 has been recorded for this entry: `COc1ccc2[nH]cc(CCN(C)C)c2c1`
2600

----------
Reported Ki values are given for each entry in this list.
tgt: SERT (Homo sapiens)
Construct: YFP (yellow-fluorescent protein); expressed in transfected cells
protocol-details: Radioligand binding, [3H]imipramine displacement
// return numeric value only (unit: µM, not printed)

COc1ccc2[nH]cc(CCN(C)C)c2c1 : 14.5

Please examine the following record next.
What value of Ki has been recorded for this entry: `COc1ccc2[nH]cc(CCN(C(C)C)C(C)C)c2c1`
1.62

----------
tgt: h5-HT1AR (Homo sapiens, UniProt P08908)
Construct: purchased Perkin Elmer, Inc. (Waltham, MA, USA)
Sequence (P08908 whole entry): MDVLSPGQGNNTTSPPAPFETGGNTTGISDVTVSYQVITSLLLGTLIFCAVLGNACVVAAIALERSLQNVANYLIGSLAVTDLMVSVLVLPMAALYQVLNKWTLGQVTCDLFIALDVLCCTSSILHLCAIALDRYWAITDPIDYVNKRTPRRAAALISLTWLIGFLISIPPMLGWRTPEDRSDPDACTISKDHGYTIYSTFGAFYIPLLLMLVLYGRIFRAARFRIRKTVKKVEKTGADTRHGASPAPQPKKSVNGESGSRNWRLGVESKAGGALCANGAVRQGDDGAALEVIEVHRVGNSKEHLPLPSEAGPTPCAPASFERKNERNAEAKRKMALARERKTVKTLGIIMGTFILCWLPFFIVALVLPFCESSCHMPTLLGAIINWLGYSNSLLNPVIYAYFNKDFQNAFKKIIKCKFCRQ
protocol-details: Radioligand binding, [3H]8-OH-DPAT displacement
measurement-setup: 0.4 nM [3H]8-OH-DPAT, N ≥ 3; read-out: 5-HT1AR Ki ± SD
Reported Ki values are given for each entry in this list.
// return numeric value only (unit: nM, not printed)

Sample records with Ki:
CCN(C)CCc1c[nH]c2ccc(OC)cc12 : 3.11
CCN(CC)CCc1c[nH]c2ccc(OC)cc12 : 4.93

What value of Ki has been recorded for this entry: `COc1ccc2[nH]cc(CCN3CCCC3)c2c1`
0.577

What value of Ki has been recorded for this entry: `CCN(CCc1c[nH]c2ccc(OC)cc12)C(C)C`
18.4

What value of Ki has been recorded for this entry: `C=CCN(C)CCc1c[nH]c2ccc(OC)cc12`
5.96

What value of Ki has been recorded for this entry: `C=CCN(CC=C)CCc1c[nH]c2ccc(OC)cc12`
3.26

What value of Ki has been recorded for this entry: `COc1ccc2[nH]cc(CCN(C)C(C)C)c2c1`
24.8

What value of Ki has been recorded for this entry: `COc1ccc2[nH]cc(CCNC(C)C)c2c1`
15.7

Where these numbers come from: paper PMC11412900
